# Test system: 254851-301-R-J1-PDC spheroids, viability % test/control
# measurement-notes: Anticancer human tumor 254851-301-R-J1-PDC patient-derived colon carcinoma cell line growth inhibition [TAK]
# measurement-setup: second compound 0.949 µM; first compound 0.0316 µM; hits give low values; spheroids with HUVEC and MSC
Cut-off 90% on viability, T/C: below means fulfilled, at or above means not fulfilled.

See these solved cases before continuing.
compound	assigned-class
CC(C)(C)c1nc(-c2cccc(NS(=O)(=O)c3c(F)cccc3F)c2F)c(-c2ccnc(N)n2)s1 + CC(C)NCC(C(=O)N1CCN(c2ncnc3c2C(C)CC3O)CC1)c1ccc(Cl)cc1	not fulfilled
CC(C)CC(NC(=O)CNC(=O)c1cc(Cl)ccc1Cl)B1OC(=O)CC(CC(=O)O)(C(=O)O)O1 (stereo unspecified) + CC(C)NCC(C(=O)N1CCN(c2ncnc3c2C(C)CC3O)CC1)c1ccc(Cl)cc1	fulfilled
Cc1nc(NC(=O)N2CCCC2C(N)=O)sc1-c1ccnc(C(C)(C)C(F)(F)F)c1 (stereo unspecified) + CC(C)NCC(C(=O)N1CCN(c2ncnc3c2C(C)CC3O)CC1)c1ccc(Cl)cc1	not fulfilled

Consider now this further compound.
Is viability, T/C of CC(C)n1nc(-c2ccc3oc(N)nc3c2)c2c(N)ncnc21 + CC(C)NCC(C(=O)N1CCN(c2ncnc3c2C(C)CC3O)CC1)c1ccc(Cl)cc1 strictly below 90%? fulfilled

----------
# Tested on: 254851-301-R-J1-PDC spheroids, viability % test/control
# measurement-notes: Anticancer human tumor 254851-301-R-J1-PDC cell line growth inhibition [TAK];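 also: spheroids exposed to drugs for seven days before viability readout; 100% = DMSO vehicle control viability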
# measurement-setup: second compound 0.3 µM; first compound 0.00316 µM; hits give low values; spheroids with HUVEC and MSC
viability, T/C reference

Recorded viability, T/C, per entry:
molecule	viability, T/C
CC(C)CC(NC(=O)C(Cc1ccccc1)NC(=O)c1cnccn1)B(O)O (stereo not given) + CC(C)NCC(C(=O)N1CCN(c2ncnc3c2C(C)CC3O)CC1)c1ccc(Cl)cc1	103%
CC(C)n1nc(-c2ccc3oc(N)nc3c2)c2c(N)ncnc21 + CC(C)NCC(C(=O)N1CCN(c2ncnc3c2C(C)CC3O)CC1)c1ccc(Cl)cc1	93.3%
COc1c(OCCCN2CCOCC2)ccc2c3n(c(=NC(=O)c4cnc(N)nc4)nc12)CCN3 + CC(C)NCC(C(=O)N1CCN(c2ncnc3c2C(C)CC3O)CC1)c1ccc(Cl)cc1	114%
CC(C)CC(NC(=O)CNC(=O)c1cc(Cl)ccc1Cl)B1OC(=O)CC(CC(=O)O)(C(=O)O)O1 (stereo not given) + CC(C)NCC(C(=O)N1CCN(c2ncnc3c2C(C)CC3O)CC1)c1ccc(Cl)cc1	95.8%

Proceed to the following item.
Which measured viability, T/C value corresponds to COC1CC2CCC(C)C(O)(O2)C(=O)C(=O)N2CCCCC2C(=O)OC(C(C)CC2CCC(OCCO)C(OC)C2)CC(=O)C(C)C=C(C)C(O)C(OC)C(=O)C(C)CC(C)C=CC=CC=C1C (stereo not given) + CC(C)NCC(C(=O)N1CCN(c2ncnc3c2C(C)CC3O)CC1)c1ccc(Cl)cc1 ? 99.9%

----------
# Test system: 254851-301-R-J1-PDC spheroids, viability % test/control
# measurement-notes: Anticancer human tumor 254851-301-R-J1-PDC cell line growth inhibition [TAK];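 also: spheroids exposed to drugs for seven days before viability readout; 100% = DMSO vehicle control viability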
# measurement-setup: second compound 9.49 µM; first compound 0.01 µM; hits give low values; spheroids with HUVEC and MSC
Reported viability, T/C values are given for each entry in this list.
Hi! Could you send only the number? It should be in %, unit omitted.

Consider the following illustrative entries.
compound	viability, T/C [%]
COc1c(OCCCN2CCOCC2)ccc2c3n(c(=NC(=O)c4cnc(N)nc4)nc12)CCN3 + CC(C)NCC(C(=O)N1CCN(c2ncnc3c2C(C)CC3O)CC1)c1ccc(Cl)cc1	100
CC(C)CC(NC(=O)C(Cc1ccccc1)NC(=O)c1cnccn1)B(O)O (stereo not given) + CC(C)NCC(C(=O)N1CCN(c2ncnc3c2C(C)CC3O)CC1)c1ccc(Cl)cc1	81.4
COC1CC2CCC(C)C(O)(O2)C(=O)C(=O)N2CCCCC2C(=O)OC(C(C)CC2CCC(OCCO)C(OC)C2)CC(=O)C(C)C=C(C)C(O)C(OC)C(=O)C(C)CC(C)C=CC=CC=C1C (stereo not given) + CC(C)NCC(C(=O)N1CCN(c2ncnc3c2C(C)CC3O)CC1)c1ccc(Cl)cc1	95
CC(C)n1nc(-c2ccc3oc(N)nc3c2)c2c(N)ncnc21 + CC(C)NCC(C(=O)N1CCN(c2ncnc3c2C(C)CC3O)CC1)c1ccc(Cl)cc1	76.6

What value of viability, T/C has been reported for the following compound? CC(C)CC(NC(=O)CNC(=O)c1cc(Cl)ccc1Cl)B1OC(=O)CC(CC(=O)O)(C(=O)O)O1 (stereo not given) + CC(C)NCC(C(=O)N1CCN(c2ncnc3c2C(C)CC3O)CC1)c1ccc(Cl)cc1 95.1

----------
# System: 254851-301-R-J1-PDC spheroids, viability % test/control
# measurement-notes: Anticancer human tumor 254851-301-R-J1-PDC cell line growth inhibition [TAK];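 also: spheroids exposed to drugs for seven days before viability readout; 100% = DMSO vehicle control viability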
# measurement-setup: second compound 30 µM; first compound 0.1 µM; hits give low values; spheroids with HUVEC and MSC
measurement-label: viability, T/C (%)
Give just the number in %; leave the unit off.

compound	viability, T/C / %
Cc1nc(NC(=O)N2CCCC2C(N)=O)sc1-c1ccnc(C(C)(C)C(F)(F)F)c1 (stereo unspecified) + CC(C)NCC(C(=O)N1CCN(c2ncnc3c2C(C)CC3O)CC1)c1ccc(Cl)cc1	99.3
CC(C)(C)c1nc(-c2cccc(NS(=O)(=O)c3c(F)cccc3F)c2F)c(-c2ccnc(N)n2)s1 + CC(C)NCC(C(=O)N1CCN(c2ncnc3c2C(C)CC3O)CC1)c1ccc(Cl)cc1	81.7
CC(C)n1nc(-c2ccc3oc(N)nc3c2)c2c(N)ncnc21 + CC(C)NCC(C(=O)N1CCN(c2ncnc3c2C(C)CC3O)CC1)c1ccc(Cl)cc1	31.1

Which measured viability, T/C value corresponds to COC1CC2CCC(C)C(O)(O2)C(=O)C(=O)N2CCCCC2C(=O)OC(C(C)CC2CCC(OCCO)C(OC)C2)CC(=O)C(C)C=C(C)C(O)C(OC)C(=O)C(C)CC(C)C=CC=CC=C1C (stereo unspecified) + CC(C)NCC(C(=O)N1CCN(c2ncnc3c2C(C)CC3O)CC1)c1ccc(Cl)cc1 ? 77.2

What viability, T/C value was documented for this compound, COc1c(OCCCN2CCOCC2)ccc2c3n(c(=NC(=O)c4cnc(N)nc4)nc12)CCN3 + CC(C)NCC(C(=O)N1CCN(c2ncnc3c2C(C)CC3O)CC1)c1ccc(Cl)cc1 ? 71.5

State the recorded viability, T/C for this entry: CC(C)CC(NC(=O)CNC(=O)c1cc(Cl)ccc1Cl)B1OC(=O)CC(CC(=O)O)(C(=O)O)O1 (stereo unspecified) + CC(C)NCC(C(=O)N1CCN(c2ncnc3c2C(C)CC3O)CC1)c1ccc(Cl)cc1 24.4

----------
# Tested on: 254851-301-R-J1-PDC spheroids, viability % test/control
# measurement-notes: Anticancer human tumor 254851-301-R-J1-PDC cell line growth inhibition [TAK];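 also: spheroids exposed to drugs for seven days before viability readout; 100% = DMSO vehicle control viability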
# measurement-setup: second compound 9.49 µM; first compound 0.1 µM; hits give low values; spheroids with HUVEC and MSC
Classify: class 1 when viability, T/C is strictly less than 80%; class 0 when viability, T/C is not.

Say whether its viability, T/C is strictly beneath 80%. Entry: COC1CC2CCC(C)C(O)(O2)C(=O)C(=O)N2CCCCC2C(=O)OC(C(C)CC2CCC(OCCO)C(OC)C2)CC(=O)C(C)C=C(C)C(O)C(OC)C(=O)C(C)CC(C)C=CC=CC=C1C (stereo unspecified) + CC(C)NCC(C(=O)N1CCN(c2ncnc3c2C(C)CC3O)CC1)c1ccc(Cl)cc1 class 0

Determine if CC(C)n1nc(-c2ccc3oc(N)nc3c2)c2c(N)ncnc21 + CC(C)NCC(C(=O)N1CCN(c2ncnc3c2C(C)CC3O)CC1)c1ccc(Cl)cc1 shows viability, T/C strictly lower than 80%. class 1

Lab note: viability, T/C threshold 80%. Does this compound come in strictly under it? CC(C)(C)c1nc(-c2cccc(NS(=O)(=O)c3c(F)cccc3F)c2F)c(-c2ccnc(N)n2)s1 + CC(C)NCC(C(=O)N1CCN(c2ncnc3c2C(C)CC3O)CC1)c1ccc(Cl)cc1 class 0

Item Cc1nc(NC(=O)N2CCCC2C(N)=O)sc1-c1ccnc(C(C)(C)C(F)(F)F)c1 (stereo unspecified) + CC(C)NCC(C(=O)N1CCN(c2ncnc3c2C(C)CC3O)CC1)c1ccc(Cl)cc1 : viability, T/C beneath 80%, strictly? class 0

Take the compound COc1c(OCCCN2CCOCC2)ccc2c3n(c(=NC(=O)c4cnc(N)nc4)nc12)CCN3 + CC(C)NCC(C(=O)N1CCN(c2ncnc3c2C(C)CC3O)CC1)c1ccc(Cl)cc1 and say whether its viability, T/C is less than 80%. class 0

A record lists CC(C)CC(NC(=O)CNC(=O)c1cc(Cl)ccc1Cl)B1OC(=O)CC(CC(=O)O)(C(=O)O)O1 (stereo unspecified) + CC(C)NCC(C(=O)N1CCN(c2ncnc3c2C(C)CC3O)CC1)c1ccc(Cl)cc1 . Is its viability, T/C below 80%? class 1
